Attribution: patent US20230061973A1

I'd be grateful if you could share measured Mean OD at plasma conc. 0.400 ng/mL for these entries.
# EXPERIMENTAL SYSTEM: T1, exemplary TAT frataxin fusion molecule (HIV-1, UniProt Q16595 1-210)
# T1 construct: in the bridging assays biotinylated and sulfotagged forms were used; also called TAT-FXN fusion molecule; TAT FXN fusion molecule
# T1 sequence: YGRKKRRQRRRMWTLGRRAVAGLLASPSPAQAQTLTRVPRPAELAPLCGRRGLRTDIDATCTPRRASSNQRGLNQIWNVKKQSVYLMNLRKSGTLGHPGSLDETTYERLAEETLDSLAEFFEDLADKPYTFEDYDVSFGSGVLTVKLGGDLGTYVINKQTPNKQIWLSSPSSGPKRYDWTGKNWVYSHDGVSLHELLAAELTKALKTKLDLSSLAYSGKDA
# MEASUREMENT NOTES: PK sandwich ELISA in human plasma, antibody as capture, HRP anti-frataxin mAb detection
Hey, just the number and the unit after it is fine.

# input Annotate the binder antibody 12-3 (antibody, V domains shown, Rabbit monoclonal) VH: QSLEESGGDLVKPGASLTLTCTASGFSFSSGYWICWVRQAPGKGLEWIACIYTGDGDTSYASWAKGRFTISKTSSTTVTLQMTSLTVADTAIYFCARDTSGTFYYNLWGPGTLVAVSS VL: DVVMTQTPSPVSAPVGGTVTINCQASQNIYSNLAWYQQKPGQPPKLLIYGASTLASGVSSRFKGSRSGTEFTLTISDLECADAATYYCQSYVYSSSTADTFGGGTKVVVE with its measured Mean OD at plasma conc. 0.400 ng/mL.
# output 0.067 OD

# input Annotate the binder antibody 10-5 (antibody, V domains shown, Rabbit monoclonal) VH: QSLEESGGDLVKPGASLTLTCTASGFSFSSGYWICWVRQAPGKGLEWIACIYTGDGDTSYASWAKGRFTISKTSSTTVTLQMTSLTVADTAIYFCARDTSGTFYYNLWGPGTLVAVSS VL: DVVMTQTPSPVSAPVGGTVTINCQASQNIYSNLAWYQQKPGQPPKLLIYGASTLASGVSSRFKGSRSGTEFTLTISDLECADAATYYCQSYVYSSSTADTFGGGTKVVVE with its measured Mean OD at plasma conc. 0.400 ng/mL.
# output 0.071 OD

# input Annotate the binder antibody 12-8 (antibody, V domains shown, Rabbit monoclonal) VH: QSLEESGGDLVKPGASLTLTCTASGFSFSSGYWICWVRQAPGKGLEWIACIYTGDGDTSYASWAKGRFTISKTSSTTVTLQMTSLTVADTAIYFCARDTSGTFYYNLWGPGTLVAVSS VL: AAVLTQTPSSVSAAVGGTVTISCQSSESVYKTNYLSWFQKKPGQPPKLLIYDASTLASGVPSRFSGSGSGTQFTLTISDLECDDAATYYCAGGYSDDINAFGGGTEVEIK with its measured Mean OD at plasma conc. 0.400 ng/mL.
# output 0.07 OD

# input Annotate the binder antibody 12-10 (antibody, V domains shown, Rabbit monoclonal) VH: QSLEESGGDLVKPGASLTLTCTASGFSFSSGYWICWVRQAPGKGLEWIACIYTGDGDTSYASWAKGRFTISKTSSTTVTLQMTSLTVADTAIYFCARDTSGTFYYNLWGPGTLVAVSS VL: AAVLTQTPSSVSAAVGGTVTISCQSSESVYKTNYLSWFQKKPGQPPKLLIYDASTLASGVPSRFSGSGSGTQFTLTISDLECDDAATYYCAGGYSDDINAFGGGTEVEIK with its measured Mean OD at plasma conc. 0.400 ng/mL.
# output 0.067 OD

# input Annotate the binder antibody 12-1 (antibody, V domains shown, Rabbit monoclonal) VH: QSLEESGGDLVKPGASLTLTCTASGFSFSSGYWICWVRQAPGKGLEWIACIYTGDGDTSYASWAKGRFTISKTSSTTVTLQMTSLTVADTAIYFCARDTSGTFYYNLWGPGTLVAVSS VL: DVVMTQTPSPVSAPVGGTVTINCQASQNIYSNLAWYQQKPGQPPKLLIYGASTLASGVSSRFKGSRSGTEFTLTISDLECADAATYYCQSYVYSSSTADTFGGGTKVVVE with its measured Mean OD at plasma conc. 0.400 ng/mL.
# output 0.067 OD
